Tested on: HBV viral production from HepAD38 cells
assay: Activity of test compounds on viral production from HepAD38 cells (viral load by qPCR of HBV core sequence in supernatant)
Format: cell-based
condition-description: Hepatitis B virus, 120 h, 5 days incubation, HBV DNA in supernatant by qPCR, top concentration 10 μM, read-out: Viral Load EC50 Activity range
pEC50: −log10 of the molar value.
property: pEC50

- CN1C(C(=O)Nc2ccc(F)c(Cl)c2)CC(c2cc(-c3ccn(C)n3)cs2)NS1(=O)=O (racemic) [HBV-CSU-288]: > 6.00
- CN1C(C(=O)Nc2ccc(F)c(Cl)c2)CC(c2cc(-c3cccs3)cs2)NS1(=O)=O (centres unmarked) [HBV-CSU-170]: > 6.00
- Cc1nn(C)c(C)c1-c1csc([C@H]2C[C@@H](C(=O)Nc3ccc(F)c(Cl)c3)N(C)S(=O)(=O)N2)c1 [HBV-CSU-317-ISO-I]: > 6.00
- CN1[C@H](C(=O)Nc2ccc(F)c(Cl)c2)C[C@H](c2ccc(F)s2)NS1(=O)=O [HBV-CSU-029-ISO-I]: > 6.00
- CN1C(C(=O)Nc2ccc(F)c(Cl)c2)CC(c2cccc(C(F)(F)F)c2)NS1(=O)=O (centres unmarked) [HBV-CSU-259]: > 6.00
- CN1[C@@H](C(=O)Nc2ccc(F)c(Cl)c2)C[C@@H](c2ccc(-c3cnn(C(F)(F)F)c3)s2)NS1(=O)=O [HBV-CSU-321-ISO-II]: < 5.30
- COCCCN1[C@H](C(=O)Nc2ccc(F)c(Cl)c2)C[C@H](c2nccs2)NS1(=O)=O [HBV-CSU-077-ISO-II]: > 6.00
- CC(C)n1cc(-c2csc([C@@H]3C[C@H](C(=O)Nc4ccc(F)c(Cl)c4)N(C)S(=O)(=O)N3)c2)cn1 [HBV-CSU-295-ISO-II]: 5.30 to 6.00
- CN1[C@@H](C(=O)Nc2ccc(F)c(Cl)c2)C[C@@H](c2ccc(-c3cccs3)s2)NS1(=O)=O [HBV-CSU-162-ISO-II]: 5.30 to 6.00
- CN1[C@H](C(=O)Nc2ccc(F)c(Cl)c2)C[C@H](c2cc(-c3cnn(CCO)c3)cs2)NS1(=O)=O [HBV-CSU-296-ISO-I]: > 6.00
- O=C(Nc1ccc(F)c(Cl)c1)C1CC(c2nccs2)NS(=O)(=O)N1CCCN1CCOCC1 (centres unmarked) [HBV-CSU-103]: < 5.30
